Sourced from the supplement of paper PMC4022240

- TARGET UNDER TEST: T1, HaloTag-ATRX ADD domain (163-292)
- T1 chain: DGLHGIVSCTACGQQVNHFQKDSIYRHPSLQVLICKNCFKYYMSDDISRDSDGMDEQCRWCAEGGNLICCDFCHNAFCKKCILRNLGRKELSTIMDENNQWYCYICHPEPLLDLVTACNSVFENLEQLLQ
- ASSAY EXPLANATION: peptide microarray binding signal (635 nm), min-max normalized on array (fraction of array maximum); higher = stronger binding
- MEASUREMENT CONTEXT: peptide region: Unmod H3 variant; binder concentration: 500 nM
MEASURED ATTRIBUTE: peptide microarray binding signal
Lab note: jot down the number only; don't add units.

Task item: Sample RKSAPSTGGVKKP [Unmod H3 variant R K S A P S T G G V K K P] — what was its peptide microarray binding signal?
Reply: 0.0103

Task item: What do you get for RKSAPATGGVKKP [Unmod H3 variant R K S A P A T G G V K K P] ?
Reply: 0.0111

Task item: And then ALQEACEAYLVGL [Unmod H3 variant A L Q E A C E A Y L V G L] , what is it?
Reply: 0.00148

Task item: Entry ATKAARKSAPSTG [Unmod H3 variant A T K A A R K S A P S T G] please
Reply: 0.00757
